pIC50, Methionine aminopeptidase 2 (Homo sapiens, UniProt P50579), per-entry values.
Convention used: pIC50 is expressed as -log10 of the molar concentration.

Output pIC50 of `Oc1c(Br)cc(Cl)c2cccnc12`
3.95

Output pIC50 of `Oc1c(I)cc(Cl)c2cccnc12`
4.09

====

# assay_details: Inhibition of Mycobacterium tuberculosis Zmp1
Exercise: state measured IC50 for each of the compounds provided.

Output IC50 of `O=C(O)c1ccc2cccc(O)c2n1`
> 10000 nM

Output IC50 of `C=CCONC(=O)c1ccc2cccc(O)c2n1`
123 nM

Output IC50 of `O=C(NCCc1ccccc1)c1ccc2cccc(O)c2n1`
> 10000 nM

Output IC50 of `CONC(=O)c1ccc2cccc(O)c2n1`
115 nM

Output IC50 of `O=C(NCCCc1ccccc1)c1ccc2cccc(O)c2n1`
> 10000 nM

Output IC50 of `O=C(NOCc1ccccc1)c1ccc2cccc(O)c2n1`
11 nM
